# system under test: FAK (Homo sapiens)
# Construct: homozygous knock-in of a HiBiT tag (Promega Corporation, Madison, WI) to the C-terminus of the FAK gene in its natural genomic locus; endogenous in cells; host or cells: JHH-4-FAK-HiBiT clone d01 (CRISPR-Cas9 knock-in at the endogenous locus)
# procedure summary: FAK-HiBiT Degradation Assay
# Format: cell-based
# experimental conditions: JHH-4-FAK-HiBiT clone d01 cells; two hours incubation; 10-point dose response, 3-fold dilution starting at 1 μM; Nano-Glo HiBiT luminescence; read-out: FAK HiBiT EC50
outcome measure: log10 of DC50 (log10 of the value in nM)

{"compound": "O=C1CC[C@H](N2Cc3c(ccc(Cn4ncc5c(-c6ncc(F)cc6Cl)cc(N6CC(F)C6)nc54)c3F)C2=O)C(=O)N1 (single isomer, unassigned) [Example 61]", "recorded measurement": 0.56}
{"compound": "CN(c1cc(-c2ncc(C(F)(F)F)cc2Cl)c2cnn(Cc3ccc4c(c3)CN([C@H]3CCC(=O)NC3=O)C4=O)c2n1)C1CC(C)(O)C1 (stereo partly shown) [Example 83]", "recorded measurement": 1.01}
{"compound": "CCOc1cnc(-c2cc(N3CC(F)C3)nc3c2cnn3Cc2ccc3c(c2)CN(C2CCC(=O)NC2=O)C3=O)c(Cl)c1 (stereo not shown) [Example 44]", "recorded measurement": 0.24}
{"compound": "CC(C)Nc1cc(-c2ccncc2Cl)c2cnn(Cc3ccc4c(c3)CN(C3CCC(=O)NC3=O)C4=O)c2n1 (stereo not shown) [Example 116]", "recorded measurement": 1.83}
{"compound": "CN(c1cc(-c2ncc(C(F)(F)F)cc2Cl)c2cnn(Cc3ccc4c(c3)CN([C@H]3CCC(=O)NC3=O)C4=O)c2n1)[C@H]1C[C@@H](O)C1 [Example 120]", "recorded measurement": 1.94}
{"compound": "O=C1CCC(N2Cc3cc(Cn4ncc5c(-c6ncc(C(F)(F)F)cc6F)cc(N6CC(F)C6)nc54)ccc3C2=O)C(=O)N1 (stereo not shown) [Example 55]", "recorded measurement": 0.50}
{"compound": "CN(c1cc(-c2ncc(C(F)(F)F)cc2Cl)c2cnn(Cc3ccc4c(c3)CN([C@H]3CCC(=O)NC3=O)C4=O)c2n1)[C@H]1C[C@](C)(O)C1 [Example 107]", "recorded measurement": 1.58}
{"compound": "COc1cnc(-c2cc(N3CC(F)C3)nc3c2cnn3Cc2ccc3c(c2)CN(C2CCC(=O)NC2=O)C3=O)c(C)c1 (stereo not shown) [Example 97]", "recorded measurement": 1.36}
{"compound": "O=C1CC[C@H](N2Cc3cc(Cn4ncc5c(-c6ncc(F)cc6Cl)cc(N6CC(F)C6)nc54)ccc3C2=O)C(=O)N1 [Example 51]", "recorded measurement": 0.35}
{"compound": "CC(C)(O)c1cnc(-c2cc(N3CC(F)C3)nc3c2cnn3Cc2ccc3c(c2)CN([C@H]2CCC(=O)NC2=O)C3=O)c(Cl)c1 [Example 119]", "recorded measurement": 1.93}
{"compound": "O=C1CCC(N2Cc3cc(Cn4ncc5c(-c6ncccc6Cl)cc(N6CCC6)nc54)ccc3C2=O)C(=O)N1 (stereo not shown) [Example 88]", "recorded measurement": 1.11}
{"compound": "CC(C)(O)c1ccc(-c2cc(N3CCC3)nc3c2cnn3Cc2ccc3c(c2)CN(C2CCC(=O)NC2=O)C3=O)c(Cl)c1 (stereo not shown) [Example 105]", "recorded measurement": 1.55}
{"compound": "O=C1CC[C@H](N2Cc3cc(Cn4ncc5c(-c6ncc(C(F)(F)F)cc6Cl)cc(N6CC(O)C6)nc54)ccc3C2=O)C(=O)N1 [Example 113]", "recorded measurement": 1.71}

---

# system under test: FAK (Homo sapiens, UniProt Q05397)
# Construct: homozygous knock-in of a HiBiT tag (Promega Corporation, Madison, WI) to the C-terminus of the FAK gene in its natural genomic locus; endogenous in cells; host or cells: JHH-4-FAK-HiBiT clone d01 (CRISPR-Cas9 knock-in at the endogenous locus)
# Sequence (Q05397 whole entry): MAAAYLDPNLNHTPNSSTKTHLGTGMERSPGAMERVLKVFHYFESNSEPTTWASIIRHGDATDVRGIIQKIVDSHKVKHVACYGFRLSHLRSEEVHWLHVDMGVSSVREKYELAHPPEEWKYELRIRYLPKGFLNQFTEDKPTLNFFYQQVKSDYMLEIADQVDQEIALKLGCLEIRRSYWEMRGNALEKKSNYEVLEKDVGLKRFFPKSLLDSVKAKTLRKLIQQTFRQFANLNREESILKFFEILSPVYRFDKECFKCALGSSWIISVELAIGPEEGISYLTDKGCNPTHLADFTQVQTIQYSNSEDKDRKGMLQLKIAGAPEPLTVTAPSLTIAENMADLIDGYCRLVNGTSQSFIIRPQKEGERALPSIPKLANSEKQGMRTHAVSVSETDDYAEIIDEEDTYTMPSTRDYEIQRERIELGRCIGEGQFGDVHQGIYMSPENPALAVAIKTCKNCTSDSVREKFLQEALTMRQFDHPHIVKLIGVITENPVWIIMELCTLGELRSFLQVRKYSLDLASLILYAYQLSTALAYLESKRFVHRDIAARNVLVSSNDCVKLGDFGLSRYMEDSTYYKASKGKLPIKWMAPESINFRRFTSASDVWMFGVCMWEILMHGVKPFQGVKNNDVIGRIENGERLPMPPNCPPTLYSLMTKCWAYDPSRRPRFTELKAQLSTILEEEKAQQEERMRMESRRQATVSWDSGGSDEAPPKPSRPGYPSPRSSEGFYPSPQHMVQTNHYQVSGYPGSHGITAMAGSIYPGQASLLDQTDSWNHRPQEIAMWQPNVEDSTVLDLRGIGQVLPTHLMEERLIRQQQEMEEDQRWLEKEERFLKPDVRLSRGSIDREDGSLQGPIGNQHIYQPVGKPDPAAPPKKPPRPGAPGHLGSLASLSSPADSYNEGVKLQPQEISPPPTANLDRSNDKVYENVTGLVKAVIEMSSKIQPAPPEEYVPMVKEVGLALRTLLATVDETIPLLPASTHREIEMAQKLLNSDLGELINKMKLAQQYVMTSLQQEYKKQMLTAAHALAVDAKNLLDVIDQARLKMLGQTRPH
# procedure summary: FAK-HiBiT Degradation Assay
# Assay type: cell-based
# experimental conditions: JHH-4-FAK-HiBiT clone d01 cells; two hours incubation; 10-point dose response, 3-fold dilution starting at 1 μM; Nano-Glo HiBiT luminescence; read-out: FAK HiBiT EC50
Listed compounds paired with reported DC50

{"compound": "CC(C)(O)c1ccc(Cl)c(-c2cc(N3CCC3)nc3c2cnn3Cc2ccc3c(c2)CN(C2CCC(=O)NC2=O)C3=O)c1 (stereo not shown)", "DC50 / nM": 124}
{"compound": "CCOc1cnc(-c2cc(N3CC(F)C3)nc3c2cnn3Cc2ccc3c(c2)CN(C2CCC(=O)NC2=O)C3=O)c(CC)c1 (stereo not shown)", "DC50 / nM": 6.88}
{"compound": "O=C1CC[C@H](N2Cc3cc(Cn4ccc5c(-c6ncc(C(F)(F)F)cc6Cl)nc(N6CC(F)C6)nc54)ccc3C2=O)C(=O)N1", "DC50 / nM": 0.38}
{"compound": "CN(c1cc(-c2ncc(C(F)(F)F)cc2Cl)c2cnn(Cc3ccc4c(c3)CN(C3CCC(=O)NC3=O)C4=O)c2n1)C1CCOCC1 (stereo not shown)", "DC50 / nM": 18.3}
{"compound": "O=C1CCC(N2Cc3cc(Cn4ncc5c(-c6ncc(Cl)cc6F)cc(N6CC(F)C6)nc54)ccc3C2=O)C(=O)N1 (stereo not shown)", "DC50 / nM": 13.6}
{"compound": "O=C1CCC(N2Cc3cc(Cn4ncc5c(-c6ncc(C(F)F)cc6Cl)cc(N6CC(F)C6)nc54)ccc3C2=O)C(=O)N1 (stereo not shown)", "DC50 / nM": 1.59}
{"compound": "O=C1CCC(N2Cc3cc(Cn4ncc5c(-c6ncccc6Cl)c(F)c(N6CC(F)C6)nc54)ccc3C2=O)C(=O)N1 (stereo not shown)", "DC50 / nM": 0.98}
{"compound": "CN(C)c1cc(-c2ncc(C(F)(F)F)cc2Cl)c2cnn(Cc3ccc4c(c3)CN(C3CCC(=O)NC3=O)C4=O)c2n1 (stereo not shown)", "DC50 / nM": 0.42}
{"compound": "O=C1CC[C@H](N2Cc3cc(Cn4ncc5c(-c6ncc(C(F)(F)F)cc6Cl)c(Cl)c(N6CC(F)C6)nc54)ccc3C2=O)C(=O)N1", "DC50 / nM": 0.24}
{"compound": "Cc1nc2c(-c3ccc(C(F)(F)F)cc3Cl)cc(N3CC(F)C3)nc2n1Cc1ccc2c(c1)CN(C1CCC(=O)NC1=O)C2=O (stereo not shown)", "DC50 / nM": 0.89}
{"compound": "Cc1cnc(-c2cc(N3CC(F)C3)nc3c2cnn3Cc2ccc3c(c2)CN(C2CCC(=O)NC2=O)C3=O)c(C)c1 (stereo not shown)", "DC50 / nM": 11.1}
{"compound": "N#Cc1cnc(-c2cc(N3CC(F)C3)nc3c2cnn3Cc2ccc3c(c2)CN(C2CCC(=O)NC2=O)C3=O)c(Cl)c1 (stereo not shown)", "DC50 / nM": 6.62}
{"compound": "N#Cc1ccc(-c2cc(N3CCC3)nc3c2cnn3Cc2ccc3c(c2)CN(C2CCC(=O)NC2=O)C3=O)c(F)c1 (stereo not shown)", "DC50 / nM": 3.92}

---

# system under test: FAK (Homo sapiens, UniProt Q05397)
# Construct: homozygous knock-in of a HiBiT tag (Promega Corporation, Madison, WI) to the C-terminus of the FAK gene in its natural genomic locus; endogenous in cells; host or cells: JHH-4-FAK-HiBiT clone d01 (CRISPR-Cas9 knock-in at the endogenous locus)
# procedure summary: FAK-HiBiT Degradation Assay
# Assay type: cell-based
# experimental conditions: lower limit of the four parameter fit (value A); Ymax derived using DMSO control; JHH-4-FAK-HiBiT cells, two hours
outcome measure: FAK HiBiT Ymin

{"compound": "CN1CCC(Nc2cc(-c3ncc(C(F)(F)F)cc3Cl)c3cnn(Cc4ccc5c(c4)CN(C4CCC(=O)NC4=O)C5=O)c3n2)C1 (stereo not drawn) [Example 128]", "system under test": "FAK (Homo sapiens, UniProt Q05397)", "outcome measure": "FAK HiBiT Ymin", "recorded measurement": 58.00}
{"compound": "O=C1CCC(N2Cc3cc(Cn4ncc5c(-c6ncc(F)cc6Cl)cc(N6CC[C@@H](O)C6)nc54)ccc3C2=O)C(=O)N1 (stereo partly drawn) [Example 114]", "system under test": "FAK (Homo sapiens, UniProt Q05397)", "outcome measure": "FAK HiBiT Ymin", "recorded measurement": 14.15}
{"compound": "C[C@]1(O)CCN(c2cc(-c3ccc(C#N)cc3F)c3cnn(Cc4ccc5c(c4)CN(C4CCC(=O)NC4=O)C5=O)c3n2)C1 (stereo partly drawn) [Example 115]", "system under test": "FAK (Homo sapiens, UniProt Q05397)", "outcome measure": "FAK HiBiT Ymin", "recorded measurement": 53.22}
{"compound": "CN(c1cc(-c2ncc(C(F)(F)F)cc2Cl)c2cnn(Cc3ccc4c(c3)CN([C@H]3CCC(=O)NC3=O)C4=O)c2n1)C1COC1 [Example 99]", "system under test": "FAK (Homo sapiens, UniProt Q05397)", "outcome measure": "FAK HiBiT Ymin", "recorded measurement": 13.33}
{"compound": "N#Cc1ccc(-c2c(Cl)c(N3CC(F)C3)nc3c2cnn3Cc2ccc3c(c2)CN(C2CCC(=O)NC2=O)C3=O)c(F)c1 (stereo not drawn) [Example 10]", "system under test": "FAK (Homo sapiens, UniProt Q05397)", "outcome measure": "FAK HiBiT Ymin", "recorded measurement": 6.93}
{"compound": "O=C1CCC(N2Cc3cc(Cn4ncc5c(-c6ccc(C7(O)CCOCC7)cn6)cc(N6CC(F)C6)nc54)ccc3C2=O)C(=O)N1 (stereo not drawn) [Example 122]", "system under test": "FAK (Homo sapiens, UniProt Q05397)", "outcome measure": "FAK HiBiT Ymin", "recorded measurement": 74.73}
